Answer each item with its documented composite z-score.
# run-description: binders of probe aFGF10 on microarray, primary screen, stem cell growth factor project, biochemical, small-molecule microarray, fluorescence 635/667 (AID 1071);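 also: score merges 667 nm spot intensity and signal to noise from triplicate slides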
# run-parameters: higher = more signal
Form field (numeric): enter value without unit.

Incoming: Would you kindly share the measured composite z-score for CCCCC(O)C1C=CC2C(=O)N(c3ccccc3)C(=O)C2N1Nc1ccc(C(C)C)cc1 (configuration not stated) ?
Outgoing: 0.47

Incoming: Would you kindly share the measured composite z-score for C=CCOC(=O)[C@H]1[C@@H]2C(=O)O[C@@H](c3ccccc3)[C@@H](c3ccccc3)N2[C@@H](c2ccc(OCCOC(=O)[C@@H]3C[C@@H]4C(=O)N[C@@H](CCCCNC(C)=O)C(=O)N4[C@@H]3c3ccc(O)cc3)cc2)[C@]12C(=O)Nc1ccc(I)cc12 ?
Outgoing: 0.892

Incoming: Would you kindly share the measured composite z-score for O=C1NC(=O)C2C1C=CC(C(O)CCc1ccccc1)N2Nc1ccc(Cl)cc1Cl (configuration not stated) ?
Outgoing: 0.229

Incoming: Would you kindly share the measured composite z-score for COCCOC(=O)N1C(=O)[C@@]2(c3ccccc31)[C@H](C(=O)N1CCN(c3ncccn3)CC1)[C@H]1C(=O)O[C@H](c3ccccc3)[C@H](c3ccccc3)N1[C@@H]2c1ccc(O)cc1 ?
Outgoing: 0.879

Incoming: Would you kindly share the measured composite z-score for COC(=O)[C@@]1(Cc2ccc(OC)cc2)[C@H]2c3cc(C(=O)N(C)C)n(C[C@H](O)CO)c3C[C@H]2CN1C(=O)c1ccccc1 ?
Outgoing: 0.504

Incoming: Would you kindly share the measured composite z-score for COC(=O)c1cn(C[C@@H](Cc2ccccc2)NC(=O)N[C@H](CO)CCc2oc(C(C)=O)c(C(=O)OC)c2C(=O)OC)nn1 ?
Outgoing: 0.757

Incoming: Would you kindly share the measured composite z-score for CN1C(=O)C2C=CC(C(O)c3cccc(O)c3)N(Nc3ccccc3)C2C1=O (configuration not stated) ?
Outgoing: 0.518

Incoming: Would you kindly share the measured composite z-score for COCCOC(=O)N1C(=O)[C@@]2(c3cc(C#Cc4ccc(OC)cc4)ccc31)[C@H](C(=O)Nc1nc3ccccc3s1)[C@H]1C(=O)O[C@H](c3ccccc3)[C@H](c3ccccc3)N1[C@@H]2c1ccc(O)cc1 ?
Outgoing: 0.445

Incoming: Would you kindly share the measured composite z-score for COc1ccc(C#Cc2ccc3c(c2)[C@]2(C(=O)N3)[C@H](c3ccc(O)cc3)N3[C@H](c4ccccc4)[C@H](c4ccccc4)OC(=O)[C@H]3[C@@H]2C(=O)O)cc1 ?
Outgoing: 0.831

Incoming: Would you kindly share the measured composite z-score for COC1OC[C@]2(C)[C@H]3C4=C(CN2C(=O)OC(C)(C)C)[C@H](C)C(CO)C(CO)C4CC[C@@H]13 (some centres not stated) ?
Outgoing: 0.557

Incoming: Would you kindly share the measured composite z-score for CC(=O)NCCCC[C@@H]1NC(=O)[C@@H]2C[C@H](C(=O)NCCCC[N+](C)(C)C)[C@H](c3ccc(O)cc3)N2C1=O ?
Outgoing: 0.88

Incoming: Would you kindly share the measured composite z-score for CC1CC/C=C\[C@H]2OC34C=CCN(c5ccc(Cl)cc5)C(=O)[C@H]3N(CCCCCO)C(=O)[C@]4(C)C2C(=O)O1 (some centres not stated) ?
Outgoing: -1.26

Incoming: Would you kindly share the measured composite z-score for CO[C@H]1O[C@H](CO)[C@@H](OC(=O)Nc2ccc3c(c2)OCO3)[C@H](OC(=O)c2cc3ccccc3[nH]2)[C@H]1OC(=O)c1cc2ccccc2[nH]1 ?
Outgoing: 0.236

Incoming: Would you kindly share the measured composite z-score for COCCOC(=O)N1C(=O)[C@@]2(c3cc(C#CC4=CCCCC4)ccc31)[C@H](c1ccc(OCCO)cc1)N1[C@H](c3ccccc3)[C@H](c3ccccc3)OC(=O)[C@H]1[C@@H]2C(=O)N1CCN(c2ncccn2)CC1 ?
Outgoing: 0.874

Incoming: Would you kindly share the measured composite z-score for CC(C)C(=C=CC[C@H](O)c1cccc(OCCO)c1)C[C@H](O)c1cc(Cl)cc(Cl)c1O ?
Outgoing: 0.792

Incoming: Would you kindly share the measured composite z-score for CN(C)C(=O)[C@@]1(Cc2ccccc2CN=[N+]=[N-])N=C(c2ccc(OCCCO)cc2)O[C@H]1c1ccccc1CN=[N+]=[N-] ?
Outgoing: 0.776

Incoming: Would you kindly share the measured composite z-score for CCCCC(=C=CC[C@@H](O)c1ccccc1OCCO)C[C@@H](O)COCc1ccccc1 ?
Outgoing: -0.333

* * *

# assay-target: Neurogenic locus notch homolog protein 3 (Homo sapiens)
# run-description: NOTCH3 binders on small-molecule microarray, primary screen, biochemical, 635/667 nm fluorescence (AID 1096)
# run-parameters: NOTCH3 binding, 635 nm fluorescence, higher = more signal
measure-name: composite z-score

Incoming: Would you kindly share the measured composite z-score for COc1ccc(NC(=O)O[C@H]2[C@H](OC(=O)Nc3ccccc3)[C@H](OC(=O)Nc3ccccc3)[C@@H](OC)O[C@@H]2CO)cc1 ?
Outgoing: 0.989

Incoming: Would you kindly share the measured composite z-score for O=C1C2C=CC(C(O)c3ccccc3)N(Nc3ccccc3F)C2C(=O)N1c1ccccc1 (stereo not drawn) ?
Outgoing: 0.023

Incoming: Would you kindly share the measured composite z-score for C=CC[C@@]1(C(=O)N2CCOCC2)N=C(c2ccc(OCCCO)cc2)O[C@@H]1c1ccccc1CN=[N+]=[N-] ?
Outgoing: 1.09

Incoming: Would you kindly share the measured composite z-score for COC(=O)C(CC#Cc1ccc2c(c1)[C@]1(C(=O)N2)[C@H](c2ccccc2OCCO)N2[C@H](c3ccccc3)[C@H](c3ccccc3)OC(=O)[C@H]2[C@@H]1C(=O)NC[C@H](O)c1ccccc1)C(=O)OC ?
Outgoing: 1.04

Incoming: Would you kindly share the measured composite z-score for C=C(C)[C@@H]1CC=C(C(O)C2C=CC3C(=O)N(c4ccccc4)C(=O)C3N2Nc2ccccc2F)CC1 (stereo partly drawn) ?
Outgoing: 1.01

Incoming: Would you kindly share the measured composite z-score for COC(=O)[C@@]1(Cc2ccc(OC)cc2)[C@H]2c3cc(C(=O)N4CCCC4)n(Cc4cccc5ccccc45)c3C[C@H]2CN1C(=O)c1ccccc1 ?
Outgoing: 0.981

Incoming: Would you kindly share the measured composite z-score for O=C(N1CCCCC1)[C@@]1(CCS(=O)(=O)c2ccccc2)COC(c2ccc(OCCCO)cc2)=N1 ?
Outgoing: 0.841

Incoming: Would you kindly share the measured composite z-score for COCCOC(=O)N1C(=O)[C@@]2(c3cc(C#CC4=CCCCC4)ccc31)[C@H](c1ccccc1OCCO)N1[C@H](c3ccccc3)[C@H](c3ccccc3)OC(=O)[C@H]1[C@@H]2C(=O)Nc1nc2ccccc2s1 ?
Outgoing: 1.06

* * *

# assay-target: NADPH oxidase 2 (Homo sapiens) (UniProt P04839)
# Sequence (P04839 whole entry, looked up): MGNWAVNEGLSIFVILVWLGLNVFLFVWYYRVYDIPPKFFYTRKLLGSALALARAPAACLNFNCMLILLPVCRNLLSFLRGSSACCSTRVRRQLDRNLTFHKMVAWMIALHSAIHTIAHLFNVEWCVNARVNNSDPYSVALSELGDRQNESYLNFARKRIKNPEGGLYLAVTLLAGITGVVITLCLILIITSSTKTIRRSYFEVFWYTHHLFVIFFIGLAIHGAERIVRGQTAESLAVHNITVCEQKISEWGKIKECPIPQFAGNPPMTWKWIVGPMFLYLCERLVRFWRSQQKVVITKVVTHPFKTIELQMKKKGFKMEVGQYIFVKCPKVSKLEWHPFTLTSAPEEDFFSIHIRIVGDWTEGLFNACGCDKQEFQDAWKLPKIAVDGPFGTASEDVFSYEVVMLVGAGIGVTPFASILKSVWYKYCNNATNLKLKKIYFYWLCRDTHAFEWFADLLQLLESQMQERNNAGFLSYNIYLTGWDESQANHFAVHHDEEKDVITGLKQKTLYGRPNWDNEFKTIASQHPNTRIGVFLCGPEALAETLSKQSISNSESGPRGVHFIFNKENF
# run-description: NOX2-dependent H2O2 signal modulators, primary screen, NOX inhibitor project, cell-based, HEK293-NOX2, PMA-stimulated, Amplex Red fluorescence (AID 1159); also: test concentration not given here
# run-parameters: 45 min, higher = more signal, called active from +8 up or from −8 down
measure-name: z-score
Form field (numeric): enter value without unit.

Incoming: Would you kindly share the measured z-score for O=C1O[C@H](c2ccccc2)[C@H](c2ccccc2)N2[C@H]1[C@@H](C(=O)N1CCN(c3ncccn3)CC1)[C@]1(C(=O)Nc3ccc(C#CC4(O)CCCCCC4)cc31)[C@H]2c1ccc(OCCO)cc1 ?
Outgoing: 1.28

Incoming: Would you kindly share the measured z-score for O=C1NC(=O)C2C1C=CC(C(O)c1cccc3ccccc13)N2Nc1ccc(Cl)cc1Cl (stereo not drawn) ?
Outgoing: -1.37

Incoming: Would you kindly share the measured z-score for CC(C)[Si](C#CCCCC#N)(O[C@H](c1ccccc1)c1cn([C@H](CO)Cc2ccccc2)nn1)C(C)C ?
Outgoing: -0.777

* * *

Answer each item with its documented composite z-score.
# run-description: small-molecule microarray binders of probe aWnt5a, primary screen, biochemical, biotinylated probe, 635/667 nm fluorescence (AID 1113);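 also: score merges 667 nm fluorescence intensity with signal-to-noise per printed feature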
# run-parameters: higher = more signal

Incoming: Would you kindly share the measured composite z-score for CCOc1cc(C(O)C2C=CC3C(=O)N(c4ccccc4)C(=O)C3N2Nc2ccc(C#N)cc2)ccc1O (stereo unspecified) ?
Outgoing: -0.261

Incoming: Would you kindly share the measured composite z-score for COCC1=C2[C@@H](CCc3ccccc3)OB(O)C[C@@H]2[C@@H]2C(=O)C=CC(=O)[C@@H]2C1 ?
Outgoing: -0.101

Incoming: Would you kindly share the measured composite z-score for CC1CC/C=C\[C@H]2OC34C=CCN(c5ccc(Cl)cc5)C(=O)[C@H]3N(CCCCCO)C(=O)[C@]4(C)C2C(=O)O1 (stereo partly specified) ?
Outgoing: -0.247

Incoming: Would you kindly share the measured composite z-score for COCCOC(=O)N1C(=O)[C@@]2(c3ccccc31)[C@H](C(=O)N1CCN(c3ncccn3)CC1)[C@H]1C(=O)O[C@H](c3ccccc3)[C@H](c3ccccc3)N1[C@@H]2c1ccc(O)cc1 ?
Outgoing: -0.0735

Incoming: Would you kindly share the measured composite z-score for CCCCC(O)C1C=CC2C(=O)N(c3ccccc3)C(=O)C2N1Nc1ccc(C(C)C)cc1 (stereo unspecified) ?
Outgoing: 0.0974

Incoming: Would you kindly share the measured composite z-score for CCOC(=O)C[C@H]1[C@H](OC(=O)c2ccc(C(=O)c3ccccc3)cc2)[C@@H](NC(=O)Cc2ccc(OC)cc2)c2cc(OCCCO)ccc2N1C(=O)c1ccccc1 ?
Outgoing: 0.112

Incoming: Would you kindly share the measured composite z-score for COc1cc2c(cc1OC)CN(C(=O)[C@@H]1[C@H]3C(=O)O[C@H](c4ccccc4)[C@H](c4ccccc4)N3[C@H](c3ccc(OCCO)cc3)[C@@]13C(=O)Nc1ccccc13)CC2 ?
Outgoing: 0.133

Incoming: Would you kindly share the measured composite z-score for O=C1OCC=C[C@H]2OC34C=CCN(Cn5nnc6ccccc65)C(=O)[C@H]3N(CCCO)C(=O)[C@@H]4[C@@H]12 (stereo partly specified) ?
Outgoing: -0.26

Incoming: Would you kindly share the measured composite z-score for COc1ccccc1CN1C(=O)c2ccccc2[C@](Cc2ccccc2I)(C(=O)NCC(F)(F)F)[C@@H]1c1ccc(CO)cc1 ?
Outgoing: 0.0559

Incoming: Would you kindly share the measured composite z-score for COC(=O)C(CC#Cc1ccc2c(c1)[C@]1(C(=O)N2)[C@H](c2ccccc2OCCO)N2[C@H](c3ccccc3)[C@H](c3ccccc3)OC(=O)[C@H]2[C@@H]1C(=O)NC[C@H](O)c1ccccc1)C(=O)OC ?
Outgoing: 0.285

Incoming: Would you kindly share the measured composite z-score for COc1ccc([Si](C)(C)[C@@H]2[C@@H](CC(=O)N(CCO)Cc3ccccc3)O[C@]3(C(=O)N(Cc4cccc(N5CCOC5=O)c4)c4ccccc43)[C@H]2C)cc1 ?
Outgoing: -0.173

Incoming: Would you kindly share the measured composite z-score for CCCCC(=C=CC[C@@H](O)c1ccccc1OCCO)C[C@@H](O)COCc1ccccc1 ?
Outgoing: 0.384

Incoming: Would you kindly share the measured composite z-score for CCOC(=O)C1=CC[C@@H](c2cccc(Cl)c2)N(S(=O)(=O)c2ccc(C)cc2)C1 ?
Outgoing: -0.232

Incoming: Would you kindly share the measured composite z-score for COc1cc(OC)c(C(O)C2C=CC3C(=O)N(c4ccccc4)C(=O)C3N2Nc2ccccc2)cc1Br (stereo unspecified) ?
Outgoing: -0.0346

Incoming: Would you kindly share the measured composite z-score for N#Cc1ccc(C(O)C2C=CC3C(=O)N(c4ccccc4)C(=O)C3N2Nc2ccccc2)cc1 (stereo unspecified) ?
Outgoing: 0.0357

Incoming: Would you kindly share the measured composite z-score for CCC(CC)C(O)C1C=CC2C(=O)N(c3ccccc3)C(=O)C2N1Nc1ccc(C(C)C)cc1 (stereo unspecified) ?
Outgoing: -0.0643

Incoming: Would you kindly share the measured composite z-score for Cc1cc(C)c(C(O)C2C=CC3C(=O)N(c4ccccc4)C(=O)C3N2Nc2ccc(C(C)C)cc2)c(C)c1 (stereo unspecified) ?
Outgoing: 0.0792

Incoming: Would you kindly share the measured composite z-score for Cc1ccccc1C(O)C1C=CC2C(=O)N(C)C(=O)C2N1N(c1ccccc1)c1ccccc1 (stereo unspecified) ?
Outgoing: 0.0737

Incoming: Would you kindly share the measured composite z-score for COC(=O)[C@@]1(Cc2ccc(OC)cc2)[C@H]2c3cc(C(=O)N4CCCC4)n(Cc4cccc5ccccc45)c3C[C@H]2CN1C(=O)c1ccccc1 ?
Outgoing: 0.0913

Incoming: Would you kindly share the measured composite z-score for C=CCNC(=O)[C@@H]1[C@H]2C(=O)O[C@H](c3ccccc3)[C@H](c3ccccc3)N2[C@H](c2ccc(O)cc2)[C@@]12C(=O)N(C(=O)OCCOC)c1ccc(C#CC3(O)CCCCCC3)cc12 ?
Outgoing: -0.221

Incoming: Would you kindly share the measured composite z-score for CCOC(=O)[C@H]1[C@@H]2C(=O)N3CCC[C@H]3[C@H](O[Si](C(C)C)(C(C)C)C(C)C)[C@H]2C=C2CCN(S(=O)(=O)c3ccc(C)cc3)C[C@H]21 ?
Outgoing: -0.0379
